# TARGET: T1, Ku S258A (Mycobacterium tuberculosis, UniProt P9WKD9 1-273, S258A)
# T1 sequence: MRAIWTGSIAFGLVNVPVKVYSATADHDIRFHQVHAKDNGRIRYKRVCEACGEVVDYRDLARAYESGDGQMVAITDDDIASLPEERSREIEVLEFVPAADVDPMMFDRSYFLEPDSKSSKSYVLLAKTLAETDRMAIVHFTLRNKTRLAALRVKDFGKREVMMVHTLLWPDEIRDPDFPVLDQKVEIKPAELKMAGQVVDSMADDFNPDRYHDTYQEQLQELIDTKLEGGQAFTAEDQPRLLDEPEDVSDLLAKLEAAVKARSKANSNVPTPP
# TEST DESCRIPTION: EMSA; 5 mM Mg2+
# MEASUREMENT PARAMETERS: protein: recombinant; tags: His (Ni-NTA purified; pMCSG7); chain copies: 2; label: 5' 6-FAM on strand 1; blunt
READOUT NAME: pKd
pKd here: minus log base 10 of the concentration, concentration in moles per litre.

Which pKd value is on record for 40 bp dsDNA (dsDNA) DNA 1: CAGGGTAAGTGTGGAGGTGTAGGGAAGGGAATGTTGTCTG DNA 2: CAGACAACATTCCCTTCCCTACACCTCCACACTTACCCTG ?
5.87
